Provide the recorded combination Emax for the entries that follow.
- System: CAL-78 (Chondrosarcoma)
- method: combination Emax (second highest fraction inhibited in the dose matrix, 72 h); higher = more inhibition; extreme values may be limits of the assay
Numbers only.

Record excerpt, results attached:
Cc1cc2ncnn2cc1Nc1ncc2c(n1)n(C1CCOCC1)c(=O)n2C [AZD7648] + C[C@@H]1COCCN1C2=NC(=NC(=C2)C3(CC3)[S@](=N)(=O)C)C4=C5C=CNC5=NC=C4 [AZD6738] (first compound max 10 µM, 7x7, partner max 10 µM) | 0.469
CN(CCO)CC[C@H](CSc1ccccc1)Nc1ccc(S(=O)(=O)NC(=O)c2ccc(N3CCC([C@@H](O)c4ccccc4-c4ccc(Cl)cc4)CC3)cc2)cc1S(=O)(=O)C(F)(F)F [AZD4320] + C=CCn1c(=O)c2cnc(Nc3ccc(N4CCN(C)CC4)cc3)nc2n1-c1cccc(C(C)(C)O)n1 [AZD1775] (first compound max 1 µM, partner max 1 µM) | 0.846
CCc1c2c(nc3ccc(O)cc13)-c1cc3c(c(=O)n1C2)COC(=O)[C@]3(O)CC [SN-38] + CN(C)CCCOc1ccc(-c2ccc3ncc4c(c3c2)n(C2CCOCC2)c(=O)n4C)cn1 [AZD0156] (first compound max 0.3 µM, 7x7, partner max 1 µM) | 0.587
Cc1c2c(nn1C)CSCc1cc(n(C)n1)CSc1cc(c3ccccc3c1)OCCCc1c(C(=O)O)n(C)c3c-2c(Cl)ccc13 [AZD5991] + C[C@@H]1COCCN1C2=NC(=NC(=C2)C3(CC3)[S@](=N)(=O)C)C4=C5C=CNC5=NC=C4 [AZD6738] (first compound max 1 µM, 7x7, partner max 10 µM) | 0.796
COc1cc2ncnc(Nc3ccc(F)c(Cl)c3)c2cc1OCCCN1CCOCC1 [Gefitinib] + CC(C)n1c(=O)n(C)c2cnc3cc(F)c(-c4ccc(OCCCN5CCCCC5)nc4)cc3c21 [AZD1390] (first compound max 10 µM, 7x7, partner max 0.3 µM) | 0.194
COc1nnc2ccc(N3CCC(c4ccc(OCCN5CCN(C)C(=O)[C@H]5C)cc4)CC3)nn12 [AZD5153] + CCN(CCO)CCCOc1ccc2c(Nc3cc(CC(=O)Nc4cccc(F)c4)[nH]n3)ncnc2c1 [AZD2811] (first compound max 1 µM, 7x7, partner max 1 µM) | 0.486

Shifting focus to the compound that follows.
Query block: Print CAL-78 (Chondrosarcoma) combination Emax for CN(CCO)CC[C@H](CSc1ccccc1)Nc1ccc(S(=O)(=O)NC(=O)c2ccc(N3CCC([C@@H](O)c4ccccc4-c4ccc(Cl)cc4)CC3)cc2)cc1S(=O)(=O)C(F)(F)F [AZD4320] + CCN(CCO)CCCOc1ccc2c(Nc3cc(CC(=O)Nc4cccc(F)c4)[nH]n3)ncnc2c1 [AZD2811] (first compound max 1 µM, 7x7, partner max 1 µM) .
Result block: 0.703

Values compiled from the supplement of paper PMC11061612.
